Value source: patent US20230011571A1

# System: Marburg virus (MARV)
# assayProtocol: organism not typed
# Assay type: cell-based
# experimentalParameters: Vero, 72 h, read-out: Percent viral inhibition MARV
Entries and their measured inhibition at 1 µM follow.
// units = %; emit number, no label

molecule: CN1C[C@@H]2C[C@H]1CN2c1ccc(Oc2cc(CN3CCC(CC(=O)O)CC3)cc(-c3cc(Cl)cc(Cl)c3)n2)cn1
measurementUnits: %
inhibition at 1 µM: 55.2

molecule: CC(=O)NCC1CCN(Cc2cc(Oc3cnc(N4CCN(CC(C)C(=O)O)CC4)nc3)nc(-c3cc(Cl)cc(Cl)c3)c2)CC1 (centres unmarked)
measurementUnits: %
inhibition at 1 µM: 49.6

Noted inhibition at 1 µM for `CN1CCN(c2ncc(Oc3cc(CN4CCC5(CC4)CN(C(=O)CO)C5)cc(-c4cc(Cl)cc(Cl)c4)n3)cn2)CC1` , tested on Marburg virus (MARV): 51.3

Noted inhibition at 1 µM for `CN1CCN(c2ncc(Oc3cc(CN4CCO[C@H](CO)CC4)cc(-c4cc(Cl)cc(Cl)c4)n3)cn2)CC1` , tested on Marburg virus (MARV): 58.7

Noted inhibition at 1 µM for `O=C(O)CC1CCN(Cc2cc(Oc3cnc(N4CCN(CCC5(O)CC5)CC4)nc3)nc(-c3cc(Cl)cc(Cl)c3)c2)CC1` , tested on Marburg virus (MARV): 81.7

Noted inhibition at 1 µM for `COC(=O)NCC1CCN(Cc2cc(Oc3cnc(N4CCN(C)CC4)cn3)nc(-c3cc(Cl)cc(Cl)c3)c2)CC1` , tested on Marburg virus (MARV): 37.2

Noted inhibition at 1 µM for `CC(=O)CC1CCN(Cc2cc(Oc3cnc(N4CCN(C)CC4)nc3)nc(-c3cc(Cl)cc(Cl)c3)c2)CC1` , tested on Marburg virus (MARV): 42

Noted inhibition at 1 µM for `COCCN1CCN(c2ncc(Oc3cc(CN4CCC(CNC(C)=O)CC4)cc(-c4cc(Cl)cc(Cl)c4)n3)cn2)CC1` , tested on Marburg virus (MARV): 53.9

Noted inhibition at 1 µM for `CC(=O)NCC1CCN(Cc2cc(Oc3cnc(N4CCN(CCS(N)(=O)=O)CC4)nc3)nc(-c3cc(Cl)cc(Cl)c3)c2)CC1` , tested on Marburg virus (MARV): 19.2

Noted inhibition at 1 µM for `CC(=O)NCC1CCN(Cc2cc(Oc3ccc(N4CCN(CCC(=O)O)C(C)(C)C4)nc3)nc(-c3cc(Cl)cc(Cl)c3)c2)CC1` , tested on Marburg virus (MARV): 50.6

Noted inhibition at 1 µM for `O=C(O)CC1CCN(Cc2cc(Oc3cnc(N4CCCNCC4)nc3)nc(-c3cc(Cl)cc(Cl)c3)c2)CC1` , tested on Marburg virus (MARV): 46.8

----------
# Tested on: Marburg virus (MARV)
# assayProtocol: organism not typed
# Format: cell-based
# experimentalParameters: Vero, 72 h, read-out: Percent viral inhibition MARV
Classify by measured inhibition at 1 µM: Y if it is equal to or exceeds 40%, N if it is smaller.

Q: Item `C[C@@H](CC1CCN(Cc2cc(Oc3ccc(N4CCN(C)CC4)nn3)nc(-c3cc(Cl)cc(Cl)c3)c2)CC1)C(=O)O` with inhibition at 1 µM of 40% or above?
Ans: N

Q: Item `CN1CCN(c2ncc(Oc3cc(CN4CC[C@@H]5[C@H](CC4)[C@H]5CC(=O)O)cc(-c4cc(Cl)cc(Cl)c4)n3)cn2)CC1` with inhibition at 1 µM of 40% or above?
Ans: Y

Q: Item `CNC(=O)NCC1CCN(Cc2cc(Oc3cnc(N4CCN(CCCO)CC4)nc3)nc(-c3cc(Cl)cc(Cl)c3)c2)CC1` with inhibition at 1 µM of 40% or above?
Ans: N

----------
# Tested on: Marburg virus (MARV)
# assayProtocol: organism not typed
# Type: cell-based
# experimentalParameters: Vero, 72 h, read-out: Percent viral inhibition MARV
Classify by measured inhibition at 1 µM: satisfied if it is equal to or exceeds 40%, not satisfied if it is smaller.

molecule: NS(=O)(=O)CCCN1CCN(c2ccc(Oc3cc(CN4CCC(CC(=O)O)CC4)cc(-c4cc(Cl)cc(Cl)c4)n3)cn2)CC1
assignedLabel: satisfied

molecule: CN1CCN(c2ncc(Oc3cc(CN4CCC(CB(O)O)CC4)cc(-c4cc(Cl)cc(Cl)c4)n3)cn2)CC1
assignedLabel: not satisfied

Q: Item CC(CCN1CCN(c2cnc(Oc3cc(CN4CCC(CCO)CC4)cc(-c4cc(Cl)cc(Cl)c4)n3)cn2)CC1)C(=O)O (centres unmarked) with inhibition at 1 µM of 40% or above?
Ans: satisfied

Q: Item CNC(=O)OCC1CCN(Cc2cc(Oc3cnc(N4CCN(C(C)CCC(=O)O)CC4)nc3)nc(-c3cc(Cl)cc(Cl)c3)c2)CC1 (centres unmarked) with inhibition at 1 µM of 40% or above?
Ans: satisfied

Q: Item `CS(=O)(=O)CCCN1CCN(c2ccc(Oc3cc(CN4CCC(CCC(=O)O)CC4)cc(-c4cc(Cl)cc(Cl)c4)n3)cn2)CC1` with inhibition at 1 µM of 40% or above?
Ans: satisfied

Q: Item `COC(=O)CCN1CCN(c2ccc(Oc3cc(CN4CCC(CNC(C)=O)CC4)cc(-c4cc(Cl)cc(Cl)c4)n3)cn2)CC1` with inhibition at 1 µM of 40% or above?
Ans: satisfied

Q: Item `O=C(O)CC1CCN(Cc2cc(Oc3ccc(N4CCNCC4)nc3)nc(-c3cc(Cl)cc(Cl)c3)c2)CC1` with inhibition at 1 µM of 40% or above?
Ans: satisfied

Q: Item `CC(=O)NCC1CCN(Cc2cc(Oc3ccc(N4CC[N+](C)(C)CC4)nc3)nc(-c3cc(Cl)cc(Cl)c3)c2)CC1` with inhibition at 1 µM of 40% or above?
Ans: not satisfied

Q: Item `CN1CCCN(c2ncc(Oc3cc(CN4CCC(OCC(=O)O)CC4)cc(-c4cc(Cl)cc(Cl)c4)n3)cn2)CC1` with inhibition at 1 µM of 40% or above?
Ans: satisfied

Q: Item `CN1CCN(c2ccc(Oc3cc(CN4CCC(CCO)CC4)cc(-c4cc(Cl)cc(Cl)c4)n3)nn2)CC1` with inhibition at 1 µM of 40% or above?
Ans: not satisfied

Q: Item `CN1CCN(c2ncc(Oc3cc(CN4CC[C@@H]5[C@H](CC4)[C@H]5C(=O)O)cc(-c4cc(Cl)cc(Cl)c4)n3)cn2)CC1` with inhibition at 1 µM of 40% or above?
Ans: satisfied

Q: Item `CN1CCN(c2ncc(Oc3cc(CN4CCC(CC(=O)O)CC4)cc(-c4cc(Cl)cc(Cl)c4)n3)cn2)CC1` with inhibition at 1 µM of 40% or above?
Ans: satisfied

Q: Item `CC(=O)NCC1CCN(Cc2cc(Oc3ccc(N4CCN(CCP(=O)(O)O)CC4)nc3)nc(-c3cc(Cl)cc(Cl)c3)c2)CC1` with inhibition at 1 µM of 40% or above?
Ans: not satisfied

Q: Item `CN1C[C@@H]2C[C@H]1CN2c1cnc(Oc2cc(CN3CCC(CC(=O)O)CC3)cc(-c3cc(Cl)cc(Cl)c3)n2)cn1` with inhibition at 1 µM of 40% or above?
Ans: satisfied

----------
# System: Chikungunya virus (CHIKV)
# assayProtocol: microbe, parasite or virus in culture
# Assay type: cell-based
# experimentalParameters: Chikungunya virus, Vero, 48 h, read-out: Percent viral inhibition CHKV
attributeMeasured: inhibition at 1 µM (%)
// units = %; emit number, no label

compound: NC1CCN(c2ncc(Oc3cc(CN4CCC(CC(=O)O)CC4)cc(-c4cc(Cl)cc(Cl)c4)n3)cn2)CC1 [Example 158]
attributeMeasured: inhibition at 1 µM
numericResult: 2.85
//
compound: O=C(O)C1[C@H]2CCN(Cc3cc(Oc4cnc(N5CCN6CCC5C6)nc4)nc(-c4cc(Cl)cc(Cl)c4)c3)CC[C@@H]12 (stereo partly shown) [Example 337]
attributeMeasured: inhibition at 1 µM
numericResult: 15.9
//
compound: O=C(O)CC1CCN(Cc2cc(Oc3cnc(N4CCN(CCO)CC4)nc3)nc(-c3cc(Cl)cc(Cl)c3)c2)CC1 [Example 306]
attributeMeasured: inhibition at 1 µM
numericResult: 13.6

Proceed to the following item.
Reported inhibition at 1 µM ( C[C@@H](O)CN1CCN(c2ncc(Oc3cc(CN4CCC(OCC(=O)O)CC4)cc(-c4cc(Cl)cc(Cl)c4)n3)cn2)CC1 [Example 317] ) = 14.8

----------
# Tested on: Marburg virus (MARV)
# assayProtocol: organism not typed
# Assay type: cell-based
# experimentalParameters: Vero, 72 h, read-out: Percent viral inhibition MARV
Classify by measured inhibition at 1 µM: t if it is equal to or exceeds 50%, f if it is smaller.

structureNotation: CC(=O)NC(=O)NCC1CCN(Cc2cc(Oc3cnc(N4CCN(C)CC4)nc3)nc(-c3cc(Cl)cc(Cl)c3)c2)CC1
assignedLabel: t
--
structureNotation: CN(C)C1CCN(c2ncc(Oc3cc(CN4CCC(CC(=O)O)CC4)cc(-c4cc(Cl)cc(Cl)c4)n3)cn2)CC1
assignedLabel: t
--
structureNotation: CC(=O)NCC1CCN(Cc2cc(Oc3cnc(N4CCN(CCC(C)(C)C(=O)O)CC4)nc3)nc(-c3cc(Cl)cc(Cl)c3)c2)CC1
assignedLabel: t

Q: Item `CNC(=O)NCC1CCN(Cc2cc(Oc3ccc(N4CCN(CCO)CC4)nc3)nc(-c3cc(Cl)cc(Cl)c3)c2)CC1` with inhibition at 1 µM of 50% or above?
Ans: f

Q: Item `NC1CCN(c2ncc(Oc3cc(CN4CCC(CC(=O)O)CC4)cc(-c4cc(Cl)cc(Cl)c4)n3)cn2)CC1` with inhibition at 1 µM of 50% or above?
Ans: f
